- Test description: in vitro
- Recorded conditions: rat, not told, Surrogate activity-based Plasma stability t½
Where a SMILES comes first, the peptide text is derived from it. Bridges are numbered along the chain shown (N, C = ends). [ ]: non-standard residue; d: D form. pGlu = O=C1CC[C@@H](C(=O)O)N1; Nle = CCCC[C@H](N)C(=O)O; Aib = CC(C)(N)C(=O)O

Compound	half-life
CCCC[C@@H]1NC(=O)[C@@H]2CCCN2C(=O)C(C)(C)NC(=O)[C@H](CCCCN)NC(=O)[C@H](Cc2c[nH]cn2)NC(=O)[C@@H](NC(=O)[C@H](CC(C)C)NC(=O)[C@H](CCCNC(=N)N)NC(=O)[C@@H]2CCCN2C(=O)[C@H](CCCNC(=N)N)NC(=O)[C@@H]2CCC(=O)N2)CSSC[C@@H](C(=O)N[C@@H](Cc2ccccc2)C(=O)O)NC1=O [Example 20, pE-R-P-R-L-C-H-K-Aib-P-Nle-C-F-OH] ([pGlu]RPRLCHK[Aib]P[Nle]CF-OH; disulfide 6-12)	8.17 h

---

- Test description: in vitro
- Recorded conditions: rat, not told, Surrogate activity-based Plasma stability t½
Where a SMILES comes first, the peptide text is derived from it. Bridges are numbered along the chain shown (N, C = ends). [ ]: non-standard residue; d: D form. The star is where a group is joined. Bip = N[C@@H](Cc1ccc(-c2ccccc2)cc1)C(=O)O; Myristoyl = CCCCCCCCCCCCCC(=O)*; pGlu = O=C1CC[C@@H](C(=O)O)N1; NHPhenethyl = c1ccc(CCN*)cc1; Nle = CCCC[C@H](N)C(=O)O; Dab = NCC[C@H](N)C(=O)O; AEEA = NCCOCCOCC(=O)O; Aib = CC(C)(N)C(=O)O
Documented half-life across a set of molecules

Molecule	Value units	Censoring qualifier	half-life
CCCC[C@@H]1NC(=O)[C@@H]2CCCN2C(=O)[C@H](CC(=O)O)NC(=O)[C@H](CCCCN)NC(=O)[C@H](Cc2c[nH]cn2)NC(=O)[C@@H](NC(=O)[C@H](CC(C)C)NC(=O)[C@H](CCCNC(=N)N)NC(=O)[C@@H]2CCCN2C(=O)[C@H](CCCNC(=N)N)NC(=O)[C@@H]2CCC(=O)N2)CSSC[C@@H](C(=O)N[C@@H](Cc2ccccc2)C(=O)O)NC1=O [Example 39, pE-R-P-R-L-C-H-K-D-P-Nle-C-F-OH] ([pGlu]RPRLCHKDP[Nle]CF-OH; disulfide 6-12)	h	=	10.9
CCCC[C@@H]1NC(=O)[C@@H]2CCCN2C(=O)CNC(=O)[C@H](CCCCN)NC(=O)[C@H](Cc2c[nH]cn2)NC(=O)[C@@H](NC(=O)[C@H](CC(=O)O)NC(=O)[C@H](CCCNC(=N)N)NC(=O)[C@@H]2CCCN2C(=O)[C@H](CCCNC(=N)N)NC(=O)[C@@H]2CCC(=O)N2)CSSC[C@@H](C(=O)N[C@@H](Cc2ccccc2)C(=O)O)NC1=O [Example 42, pE-R-P-R-D-C-H-K-G-P-Nle-C-F-OH] ([pGlu]RPRDCHKGP[Nle]CF-OH; disulfide 6-12)	h	>	16.7
CCCC[C@@H]1NC(=O)[C@@H]2CCCN2C(=O)CNC(=O)[C@H](CCCCN)NC(=O)[C@H](Cc2ccccc2)NC(=O)[C@@H](NC(=O)[C@H](CC(C)C)NC(=O)[C@H](CCCNC(=N)N)NC(=O)[C@@H]2CCCN2C(=O)[C@H](CCCNC(=N)N)NC(=O)[C@@H]2CCC(=O)N2)CCCCNC(=O)[C@@H](Cc2ccccc2)NC1=O [Example 6, pE-R-P-R-L-K-F-K-G-P-Nle-f] ([pGlu]RPRLKFKGP[Nle][dF]; lactam 6-C)	h	=	1.95
CCCC[C@@H]1NC(=O)[C@@H]2CCCN2C(=O)CNC(=O)[C@H](CCCCN)NC(=O)C(C)(C)NC(=O)[C@@H](NC(=O)[C@H](CC(C)C)NC(=O)[C@H](CCCNC(=N)N)NC(=O)[C@@H]2CCCN2C(=O)[C@H](CCCNC(=N)N)NC(=O)[C@@H]2CCC(=O)N2)CSSC[C@@H](C(=O)N[C@@H](Cc2ccccc2)C(=O)O)NC1=O [Example 9, pE-R-P-R-L-C-Aib-K-G-P-Nle-C-F-OH] ([pGlu]RPRLC[Aib]KGP[Nle]CF-OH; disulfide 6-12)	h	>	16.7
CCCC[C@@H]1NC(=O)[C@@H]2CCCN2C(=O)CNC(=O)[C@H](CCCCN)NC(=O)[C@H](Cc2c[nH]cn2)NC(=O)[C@@H](NC(=O)[C@H](Cc2ccc(-c3ccccc3)cc2)NC(=O)[C@H](CCCNC(=N)N)NC(=O)[C@@H]2CCCN2C(=O)[C@H](CCCNC(=N)N)NC(=O)[C@@H]2CCC(=O)N2)CSSC[C@@H](C(=O)N[C@@H](Cc2ccccc2)C(=O)O)NC1=O [Example 41, pE-R-P-R-(4-PhF)-C-H-K-G-P-Nle-C-F-OH] ([pGlu]RPR[Bip]CHKGP[Nle]CF-OH; disulfide 6-12)	h	=	10.5
CCCC[C@@H]1NC(=O)[C@@H]2CCCN2C(=O)CNC(=O)[C@H](Cc2ccccc2)NC(=O)[C@H](Cc2c[nH]cn2)NC(=O)[C@@H](NC(=O)[C@H](CC(C)C)NC(=O)[C@H](CCCNC(=N)N)NC(=O)[C@@H]2CCCN2C(=O)[C@H](CCCNC(=N)N)NC(=O)[C@@H]2CCC(=O)N2)CCNC(=O)C[C@@H](C(=O)NCCc2ccccc2)NC1=O [Example 4] ([pGlu]RPRL[Dab]HFGP[Nle]D-NHPhenethyl; lactam 6-12)	h	=	0.833
CCCCCCCCCCCCCC(=O)NCCOCCOCC(=O)NCCOCCOCC(=O)N[C@@H](CCC(N)=O)C(=O)N[C@@H](CCCNC(=N)N)C(=O)N1CCC[C@H]1C(=O)N[C@@H](CCCNC(=N)N)C(=O)N[C@@H](CC(C)C)C(=O)N[C@H]1CSSC[C@@H](C(=O)N[C@H](Cc2ccccc2)C(=O)O)NC(=O)[C@H](CCCC)NC(=O)[C@@H]2CCCN2C(=O)CNC(=O)[C@H](CCCCN)NC(=O)[C@H](Cc2c[nH]cn2)NC1=O [Example 58] ({Myristoyl-AEEA-AEEA}-QRPRLCHKGP[Nle]C[dF]-OH; disulfide 6-12)	h	>	16.7
CCCCCCCCCCCCCC(=O)NCCOCCOCC(=O)NCCOCCOCC(=O)NCCOCCOCC(=O)NCCOCCOCC(=O)N[C@@H](CCC(N)=O)C(=O)N[C@@H](CCCNC(=N)N)C(=O)N1CCC[C@H]1C(=O)N[C@@H](CCCNC(=N)N)C(=O)N[C@@H](CC(C)C)C(=O)N[C@H]1CSSC[C@@H](C(=O)N[C@H](Cc2ccccc2)C(=O)O)NC(=O)[C@H](CCCC)NC(=O)[C@@H]2CCCN2C(=O)CNC(=O)[C@H](CCCCN)NC(=O)[C@H](Cc2c[nH]cn2)NC1=O [Example 60] ({Myristoyl-AEEA-AEEA-AEEA-AEEA}-QRPRLCHKGP[Nle]C[dF]-OH; disulfide 6-12)	h	>	16.7
CCCCCCCCCCCCCC(=O)NCCOCCOCC(=O)NCCOCCOCC(=O)NCCOCCOCC(=O)N[C@@H](CCC(N)=O)C(=O)N[C@@H](CCCNC(=N)N)C(=O)N1CCC[C@H]1C(=O)N[C@@H](CCCNC(=N)N)C(=O)N[C@@H](CC(C)C)C(=O)N[C@H]1CSSC[C@@H](C(=O)N[C@H](Cc2ccccc2)C(=O)O)NC(=O)[C@H](CCCC)NC(=O)[C@@H]2CCCN2C(=O)CNC(=O)[C@H](CCCCN)NC(=O)[C@H](Cc2c[nH]cn2)NC1=O [Example 59] ({Myristoyl-AEEA-AEEA-AEEA}-QRPRLCHKGP[Nle]C[dF]-OH; disulfide 6-12)	h	>	16.7

---

- Test description: in vitro
- Recorded conditions: rat, not told, Surrogate activity-based Plasma stability t½
Where a SMILES comes first, the peptide text is derived from it. Bridges are numbered along the chain shown (N, C = ends). [ ]: non-standard residue; d: D form. The star is where a group is joined. pGlu = O=C1CC[C@@H](C(=O)O)N1; Lauroyl = CCCCCCCCCCCC(=O)*; Nle = CCCC[C@H](N)C(=O)O
Documented half-life across a set of molecules

Molecule	Value units	Censoring qualifier	half-life
CCCC[C@@H]1NC(=O)[C@@H]2CCCN2C(=O)[C@H](CCCNC(=N)N)NC(=O)[C@H](CCCCN)NC(=O)[C@H](Cc2c[nH]cn2)NC(=O)[C@@H](NC(=O)[C@H](CC(C)C)NC(=O)[C@H](CCCNC(=N)N)NC(=O)[C@@H]2CCCN2C(=O)[C@H](CCCNC(=N)N)NC(=O)[C@@H]2CCC(=O)N2)CSSC[C@@H](C(=O)N[C@@H](Cc2ccccc2)C(=O)O)NC1=O [Example 45, pE-R-P-R-L-C-H-K-R-P-Nle-C-F-OH] ([pGlu]RPRLCHKRP[Nle]CF-OH; disulfide 6-12)	h	=	2.79
CCCC[C@@H]1NC(=O)[C@@H]2CCCN2C(=O)CNC(=O)[C@H](CCCCN)NC(=O)[C@H](Cc2c[nH]cn2)NC(=O)[C@@H](NC(=O)[C@H](CC(C)C)NC(=O)[C@H](CCCNC(=N)N)NC(=O)[C@@H]2CCCN2C(=O)[C@@H](CCCNC(=N)N)NC(=O)[C@@H]2CCC(=O)N2)CSSC[C@@H](C(=O)N[C@@H](Cc2ccccc2)C(=O)O)NC1=O [Example 30, pE-r-P-R-L-C-H-K-G-P-Nle-C-F-OH] ([pGlu][dR]PRLCHKGP[Nle]CF-OH; disulfide 6-12)	h	>	16.7
CCCC[C@@H]1NC(=O)[C@@H]2CCCN2C(=O)[C@H](CC(C)C)NC(=O)[C@H](CCCCN)NC(=O)[C@H](Cc2c[nH]cn2)NC(=O)[C@@H](NC(=O)[C@H](CC(C)C)NC(=O)[C@H](CCCNC(=N)N)NC(=O)[C@@H]2CCCN2C(=O)[C@H](CCCNC(=N)N)NC(=O)[C@@H]2CCC(=O)N2)CSSC[C@@H](C(=O)N[C@@H](Cc2ccccc2)C(=O)O)NC1=O [Example 44, pE-R-P-R-L-C-H-K-L-P-Nle-C-F-OH] ([pGlu]RPRLCHKLP[Nle]CF-OH; disulfide 6-12)	h	=	14.3
CCCC[C@@H]1NC(=O)[C@@H]2CCCN2C(=O)CNC(=O)[C@H](CCCCN)NC(=O)[C@H](Cc2c[nH]cn2)NC(=O)[C@@H](NC(=O)[C@H](CC(C)C)NC(=O)[C@H](CCCNC(=N)N)NC(=O)[C@@H]2CCCN2C(=O)[C@H](CCCNC(=N)N)NC(=O)[C@@H]2CCC(=O)N2)CSSC[C@@H](C(=O)N[C@@H](Cc2ccccc2)C(N)=O)NC1=O [Example 62, pE-R-P-R-L-C-H-K-G-P-Nle-C-F-NH2] ([pGlu]RPRLCHKGP[Nle]CF-NH2; disulfide 6-12)	h	>	16.7
CCCCCCCCCCCC(=O)NCCCC[C@H](NC(=O)[C@@H]1CSSC[C@H](NC(=O)[C@H](CC(C)C)NC(=O)[C@H](CCCNC(=N)N)NC(=O)[C@@H]2CCCN2C(=O)[C@H](CCCNC(=N)N)NC(=O)[C@@H]2CCC(=O)N2)C(=O)N[C@@H](Cc2c[nH]cn2)C(=O)N[C@@H](CCCCN)C(=O)NCC(=O)N2CCC[C@H]2C(=O)N[C@@H](CCCC)C(=O)N1)C(=O)O [Example 26, pE-R-P-R-L-C-H-K-G-P-Nle-C-K(Lauroyl)-OH] ([pGlu]RPRLCHKGP[Nle]CK(Lauroyl)-OH; disulfide 6-12)	h	>	16.7
